Biological target: Bcl-2 protein (Recombinant Human Bcl-2 Protein) (Homo sapiens)
Construct: purchased Novus NBP2-34889
Test: Binding evaluation of mixture library compounds to Bcl-2 using AS-MS (affinity selection mass spectrometry)
Conditions: AS-MS, mixture library, Bcl-2; replicate n = 1; ASMS Ratio(%)=(A−C)/B×100
property: ASMS ratio (%) n = 1
Give bare numbers, in %.

Record excerpt, results attached:
molecule | target_system | ASMS ratio (%) n = 1
CCOc1cccc(-c2cc(C(=O)N3CCN(c4ccc(C(=O)NS(=O)(=O)CC56CC7CC(CC(C7)C5)C6)nn4)CC3)cc(C(C)(C)C)c2)c1 | Bcl-2 protein (Recombinant Human Bcl-2 Protein) (Homo sapiens) | 5.9
CCOc1cncc(-c2cnn(-c3cc(C(=O)N4CCN(c5ccc(C(=O)NS(=O)(=O)c6ccc(NCCSc7ccccc7)c([N+](=O)[O-])c6)cc5)CC4)cc(C(F)(F)F)c3)c2)c1 | Bcl-2 protein (Recombinant Human Bcl-2 Protein) (Homo sapiens) | 11.0
CCOc1cccc(-c2ccccc2CCC(=O)N2CCN(c3ccc(C(=O)NS(=O)(=O)c4ccc(NCCSc5ccccc5)c([N+](=O)[O-])c4)cc3)CC2)c1 | Bcl-2 protein (Recombinant Human Bcl-2 Protein) (Homo sapiens) | 4.2
CCOc1cccc(-c2ccc(CN3CCN(c4ccc(C(=O)NS(=O)(=O)CC56CC7CC(CC(C7)C5)C6)nn4)CC3)cc2F)c1 | Bcl-2 protein (Recombinant Human Bcl-2 Protein) (Homo sapiens) | 14.3

List reported ASMS ratio (%) n = 1 for each of these molecules:
1. CCOc1cccc(-c2cc(CN3CCN(c4ccc(C(=O)N(CC)CC)nn4)CC3)cc(OC(F)(F)F)c2)c1
2. CCOc1cccc(-c2ccc(C(C)N3CCN(c4ccc(C(=O)NS(=O)(=O)c5ccc(NCCSc6ccccc6)c([N+](=O)[O-])c5)cc4)CC3)cc2)c1 (stereo not drawn)
3. CCOc1cccc(-c2ccccc2CN2CCN(c3ccc(C(=O)NS(=O)(=O)CC45CC6CC(CC(C6)C4)C5)nn3)CC2)c1
4. CCOc1cncc(-c2csc(CN3CCN(c4ccc(C(=O)NS(=O)(=O)CC56CC7CC(CC(C7)C5)C6)nn4)CC3)c2)c1

stdout:
3.9
142.5
16.1
0.0

====

Biological target: Bcl-2 protein (Recombinant Human Bcl-2 Protein) (Homo sapiens)
Construct: purchased Novus NBP2-34889
Assay: Binding evaluation of mixture library compounds to Bcl-2 using AS-MS (affinity selection mass spectrometry)
Details: n = 1
property: ASMS ratio (%)
One number for each entry, in %.

List reported ASMS ratio (%) for each of these molecules:
1. CCOc1cncc(-c2cnn(-c3cc(C(=O)N4CCN(c5ccc(C(=O)NS(=O)(=O)C(C)(C)C)nn5)CC4)cc(C(F)(F)F)c3)c2)c1
2. CCOc1cncc(-c2cc(C(=O)N3CCN(c4ccc(C(=O)NS(=O)(=O)c5ccc(NCCSc6ccccc6)c(C(F)(F)F)c5)nn4)CC3)cc(C(F)(F)F)c2)c1

stdout:
[0.0, 5.1]

List reported ASMS ratio (%) for each of these molecules:
1. CCOc1cccc(-c2cc(OC)c(CN3CCN(c4ccc(C(=O)NS(=O)(=O)C(C)(C)C)cc4)CC3)c(OC)c2)c1
2. CCOc1cncc(-c2cc(OC)c(CN3CCN(c4ccc(C(=O)NS(=O)(=O)CCC(F)(F)F)cc4)CC3)c(OC)c2)c1
3. CCOc1cncc(-c2cc(CN3CCN(c4ccc(C(=O)NS(C)(=O)=O)cc4)CC3)cc(OC(C)C)c2)c1
4. CCOc1cncc(-c2ccc(CN3CCN(c4ccc(C(=O)NS(C)(=O)=O)cc4)CC3)c(CC)c2)c1

stdout:
[0.0, 0.0, 0.0, 0.0]

====

Biological target: Bcl-2 protein (Recombinant Human Bcl-2 Protein) (Homo sapiens)
Construct: purchased Novus NBP2-34889
Experiment: Binding evaluation of mixture library compounds to Bcl-2 using AS-MS (affinity selection mass spectrometry)
Details: AS-MS, mixture of 1200 compounds, Bcl-2; ASMS Ratio(%)=(A−C)/B×100; replicate n = 2
property: ASMS ratio (%) n = 2
Give bare numbers, in %.

Record excerpt, results attached:
molecule | endpoint_value
CCOc1cncc(-c2ccc(C(C)N3CCN(c4ccc(C(=O)NCC(F)(F)F)cc4)CC3)c(F)c2)c1 (stereo not shown) | 0.0
CCOc1cncc(-c2ccc(C(=O)N3CCN(c4ccc(C(=O)NCC(F)(F)F)cc4)CC3)c3ccccc23)c1 | −0.4
CCOc1cccc(-c2cc(OC)c(CN3CCN(c4ccc(C(=O)NCC56CC7CC(CC(C7)C5)C6)nn4)CC3)c(OC)c2)c1 | 10.8
CCOc1cncc(-c2ccc(CN3CCN(c4ccc(C(=O)NCC56CC7CC(CC(C7)C5)C6)nn4)CC3)c3ccccc23)c1 | −2.4
CCOc1cccc(-c2cc(OC)c(CN3CCN(c4ccc(C(=O)NCC(F)(F)F)cc4)CC3)c(OC)c2)c1 | −1.9
CCOc1cncc(-c2cc(CN3CCN(c4ccc(C(=O)NCC(F)(F)F)nn4)CC3)cc(C(F)(F)F)c2)c1 | −0.2

Consider now this further molecule.
stdin: For the molecule CCOc1cncc(-c2ccc(CN3CCN(c4ccc(C(=O)NCC56CC7CC(CC(C7)C5)C6)cc4)CC3)c3ccccc23)c1 , give its reported ASMS ratio (%) n = 2.
stdout: 7.7

====

Biological target: Bcl-2 protein (Recombinant Human Bcl-2 Protein) (Homo sapiens, UniProt P10415)
Construct: purchased Novus NBP2-34889
Sequence (P10415 whole entry): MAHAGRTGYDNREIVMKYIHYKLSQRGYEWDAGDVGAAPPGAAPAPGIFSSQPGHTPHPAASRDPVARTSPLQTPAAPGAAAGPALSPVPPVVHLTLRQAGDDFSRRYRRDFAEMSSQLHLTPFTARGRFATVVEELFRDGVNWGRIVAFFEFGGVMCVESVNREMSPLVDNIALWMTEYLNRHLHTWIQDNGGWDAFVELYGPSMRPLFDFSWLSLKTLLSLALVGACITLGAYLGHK
Experiment: Binding evaluation of mixture library compounds to Bcl-2 using AS-MS (affinity selection mass spectrometry)
Settings: AS-MS, mixture library, Bcl-2; replicate n = 2; ASMS Ratio(%)=(A−C)/B×100
For each entry below, report its ASMS ratio (%) n = 2 value.
Answers are plain numbers, in %.

Record excerpt, results attached:
line_notation | target_system | endpoint_value
CCOc1cncc(-c2cc(CN3CCN(c4ccc(C(=O)NS(=O)(=O)c5ccc(NCCSc6ccccc6)c([N+](=O)[O-])c5)nn4)CC3)cc(OC(F)(F)F)c2)c1 | Bcl-2 protein (Recombinant Human Bcl-2 Protein) (Homo sapiens, UniProt P10415) | 13.2
CCOc1cccc(-c2cc(CN3CCN(c4ccc(C(=O)NS(=O)(=O)c5ccc(NCCSc6ccccc6)c([N+](=O)[O-])c5)nn4)CC3)cc(OC(F)(F)F)c2)c1 | Bcl-2 protein (Recombinant Human Bcl-2 Protein) (Homo sapiens, UniProt P10415) | 15.0
CCOc1cccc(-c2cc(C(=O)N3CCN(c4ccc(C(=O)NS(=O)(=O)CC56CC7CC(CC(C7)C5)C6)cc4)CC3)cc(C(C)(C)C)c2)c1 | Bcl-2 protein (Recombinant Human Bcl-2 Protein) (Homo sapiens, UniProt P10415) | 0.0

List reported ASMS ratio (%) n = 2 for each of these molecules:
1. CCOc1cccc(-c2ccc(CN3CCN(c4ccc(C(=O)NS(=O)(=O)c5ccc(NCCSc6ccccc6)c([N+](=O)[O-])c5)nn4)CC3)c3ccccc23)c1
2. CCOc1cncc(-c2ccc(C(=O)N3CCN(c4ccc(C(=O)NS(=O)(=O)c5ccc(NCCSc6ccccc6)c([N+](=O)[O-])c5)cc4)CC3)cc2C)c1
3. CCOc1cncc(C#Cc2cncc(C(=O)N3CCN(c4ccc(C(=O)NS(=O)(=O)c5ccc(NCCSc6ccccc6)c([N+](=O)[O-])c5)cc4)CC3)c2)c1

stdout:
−5.0
0.4
−374.2

List reported ASMS ratio (%) n = 2 for each of these molecules:
1. CCOc1cccc(-c2ccc(CN3CCN(c4ccc(C(=O)NS(=O)(=O)CC56CC7CC(CC(C7)C5)C6)cc4)CC3)c(OC)c2)c1
2. CCOc1cccc(-c2cc(CN3CCN(c4ccc(C(=O)NS(=O)(=O)CC56CC7CC(CC(C7)C5)C6)nn4)CC3)cc(C(F)(F)F)c2)c1
3. CCOc1cncc(-c2cc(CN3CCN(c4ccc(C(=O)N(CC)CC)nn4)CC3)cc(OCC)c2)c1
4. CCOc1cccc(C#Cc2cc(C(=O)N3CCN(c4ccc(C(=O)NS(=O)(=O)c5ccc(NCCSc6ccccc6)c([N+](=O)[O-])c5)cc4)CC3)cc(C(F)(F)F)c2)c1

stdout:
[0.0, 12.7, 0.0, 0.2]

List reported ASMS ratio (%) n = 2 for each of these molecules:
1. CCOc1cccc(-c2csc(C(=O)N3CCN(c4ccc(C(=O)NS(=O)(=O)CC56CC7CC(CC(C7)C5)C6)nn4)CC3)c2)c1
2. CCOc1cncc(-c2csc(C(=O)N3CCN(c4ccc(C(=O)NS(=O)(=O)CC56CC7CC(CC(C7)C5)C6)cc4)CC3)c2)c1

stdout:
0.0
0.0

====

Target: Bcl-2 protein (Recombinant Human Bcl-2 Protein) (Homo sapiens, UniProt P10415)
Construct: purchased Novus NBP2-34889
Assay: Binding evaluation of mixture library compounds to Bcl-2 using AS-MS (affinity selection mass spectrometry)
Conditions: n = 2
For each entry below, report its ASMS ratio (%) value.
Give bare numbers, in %.

Record excerpt, results attached:
line_notation | ASMS ratio (%)
CCOc1cccc(-c2csc(CN3CCN(c4ccc(C(=O)NS(=O)(=O)C(C)(C)C)cc4)CC3)c2)c1 | 0.0
CCOc1cncc(-c2ccc(C(=O)N3CCN(c4ccc(C(=O)NS(=O)(=O)c5ccc(NCCSc6ccccc6)c(C(F)(F)F)c5)cc4)CC3)cc2C)c1 | −4.6
CCOc1cccc(-c2ccc(CN3CCN(c4ccc(C(=O)NS(=O)(=O)CCC(F)(F)F)cc4)CC3)cc2F)c1 | 0.0
CCOc1cncc(-c2cc(OC)c(CN3CCN(c4ccc(C(=O)NS(=O)(=O)CCC(F)(F)F)cc4)CC3)c(OC)c2)c1 | 0.0
CCOc1cccc(-c2ccccc2CCC(=O)N2CCN(c3ccc(C(=O)NS(=O)(=O)C(C)(C)C)nn3)CC2)c1 | 0.0
CCOc1cncc(-c2csc(CN3CCN(c4ccc(C(=O)NS(=O)(=O)c5ccc(NCCSc6ccccc6)c(C(F)(F)F)c5)cc4)CC3)c2)c1 | 0.0
CCOc1cncc(-c2cc(CN3CCN(c4ccc(C(=O)NS(=O)(=O)C(C)(C)C)nn4)CC3)cc(OC(F)(F)F)c2)c1 | 0.0
CCOc1cncc(-c2cc(CN3CCN(c4ccc(C(=O)NS(=O)(=O)C(C)(C)C)nn4)CC3)cc(C(F)(F)F)c2)c1 | 2.8

List reported ASMS ratio (%) for each of these molecules:
1. CCOc1cncc(-c2cnn(-c3cc(C(=O)N4CCN(c5ccc(C(=O)NS(=O)(=O)c6ccc(NCCSc7ccccc7)c(C(F)(F)F)c6)cc5)CC4)cc(C(F)(F)F)c3)c2)c1
2. CCOc1cccc(-c2cc(CN3CCN(c4ccc(C(=O)NS(=O)(=O)c5ccc(NCCSc6ccccc6)c(C(F)(F)F)c5)cc4)CC3)cc(OC(C)C)c2)c1

stdout:
−4.1
−5.1

List reported ASMS ratio (%) for each of these molecules:
1. CCOc1cncc(-c2cnn(-c3cc(C(=O)N4CCN(c5ccc(C(=O)NS(=O)(=O)CCC(F)(F)F)cc5)CC4)cc(C(F)(F)F)c3)c2)c1
2. CCOc1cccc(-c2ccc(CN3CCN(c4ccc(C(=O)NS(=O)(=O)C(C)(C)C)cc4)CC3)cc2F)c1
3. CCOc1cncc(C#Cc2ccccc2CN2CCN(c3ccc(C(=O)NS(=O)(=O)C(C)(C)C)nn3)CC2)c1

stdout:
1: 1.4; 2: 0.0; 3: 0.0

Source: patent US20240132431A1
